biological target: CK1γ2 (Homo sapiens); test: radiometric enzymatic assay; format: biochemical; details: read-out: Enzymatic IC50 CK1γ2
result type: IC50 (nM)
Answers are plain numbers, in nM.

get_value(item= N#Cc1ccc2nc(Nc3ccc(N4CCOCC4)c(Cl)c3)[nH]c2c1 , readout=IC50) returns 7

* * *

molecular target: CK1γ1 (Homo sapiens); test: radiometric enzymatic assay; assay type: biochemical; conditions: read-out: Enzymatic IC50 CK1γ1
Sequence (Q9HCP0 whole entry): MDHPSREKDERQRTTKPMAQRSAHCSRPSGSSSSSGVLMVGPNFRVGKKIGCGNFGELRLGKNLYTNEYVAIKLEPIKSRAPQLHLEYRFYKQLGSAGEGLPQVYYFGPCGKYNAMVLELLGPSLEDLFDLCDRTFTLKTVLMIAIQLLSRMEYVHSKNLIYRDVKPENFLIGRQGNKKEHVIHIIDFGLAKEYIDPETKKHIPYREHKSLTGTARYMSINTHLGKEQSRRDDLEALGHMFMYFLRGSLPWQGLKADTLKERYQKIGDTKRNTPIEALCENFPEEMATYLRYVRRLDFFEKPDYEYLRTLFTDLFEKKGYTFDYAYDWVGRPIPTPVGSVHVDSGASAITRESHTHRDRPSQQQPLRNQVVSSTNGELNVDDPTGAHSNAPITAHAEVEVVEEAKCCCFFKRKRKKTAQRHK
result type: IC50 (nM)
One number for each entry, in nM.

get_value(item= N#Cc1ccc2nc(Nc3ccc(N4CCOCC4)c(Cl)c3)[nH]c2c1 , readout=IC50) returns 28

* * *

target: UniProtKB Q9HCP0; test: radiometric enzymatic assay; type: biochemical; settings: read-out: Enzymatic IC50 CK1γ1
result type: IC50 (nM)
Give bare numbers, in nM.

get_value(item= CN1CCN(c2ccc(Nc3nc4ccc(C#N)cc4[nH]3)cc2Cl)CC1 , readout=IC50) returns 36

* * *

target: CK1γ2 (Homo sapiens, UniProt P78368); experiment: radiometric enzymatic assay; format: biochemical; conditions: read-out: Enzymatic IC50 CK1γ2
Sequence (P78368 whole entry): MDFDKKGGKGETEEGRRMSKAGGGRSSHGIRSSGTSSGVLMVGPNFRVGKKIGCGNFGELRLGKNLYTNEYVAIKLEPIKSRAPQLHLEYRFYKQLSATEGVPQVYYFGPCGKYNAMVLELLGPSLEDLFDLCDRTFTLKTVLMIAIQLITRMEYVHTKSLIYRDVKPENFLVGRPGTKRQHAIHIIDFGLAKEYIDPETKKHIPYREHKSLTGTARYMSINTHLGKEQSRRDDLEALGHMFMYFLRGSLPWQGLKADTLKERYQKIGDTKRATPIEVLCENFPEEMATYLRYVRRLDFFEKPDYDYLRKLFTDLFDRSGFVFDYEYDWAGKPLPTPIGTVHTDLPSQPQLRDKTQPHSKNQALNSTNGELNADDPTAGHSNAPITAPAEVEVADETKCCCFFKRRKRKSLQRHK
result type: IC50 (nM)
Numbers only, in nM.

get_value(item= CN1CCN(c2ccc(Nc3nc4ccc(C#N)cc4[nH]3)cc2Cl)CC1 , readout=IC50) returns 14

* * *

biological target: CK1γ2 (Homo sapiens); assay: radiometric enzymatic assay; format: biochemical; settings: read-out: Enzymatic IC50 CK1γ2
result type: IC50 (nM)
Numbers only, in nM.

CK1γ2 (Homo sapiens) IC50 of N#Cc1ccc2[nH]c(Nc3ccc(N4CCCCC4)c(Cl)c3)nc2c1 is 9
